// pIC50 lookup, one value per entry
tested on: Neutrophil; experiment: Antiinflammatory activity in human neutrophils assessed as fMLP-induced superoxide release after 5 mins by spectrometry; type: functional, cell-based
pIC50: −log10 of the molar value.
Quantity kind: pIC50

>>> df
                                   molecule  quantity_kind  inequality_sign  reported_value
0  COc1cc([C@@H]2Oc3c(OC)cc(/C=C/CO)cc3[C@H]2CO)cc(OC)c1O          pIC50                =            4.93
1  CC(c1ccccc1)c1ccc(O)c(C(C)c2ccccc2)c1 (stereo not drawn)          pIC50                <            4.00
2                CC(C)=CCOc1ccc(/C=C/CO)cc1          pIC50                =            5.02
